Data origin, for the record: patent US20260258115A1

# tested_target: RSV prefusion F (preF), DS-Cav1 (respiratory syncytial virus, UniProt P03420 26-513)
# method_summary: BLI, IgG on sensor, 100 nM antigen
value_type: Kd
Please format your answer as a value with the unit trailing.

Any idea what Kd was measured for ADI-41384 (antibody, V domains shown, IgG1; also called Ab 680) VH: QVQLVQSGAEVKKPGSSVRVSCKASGGTFSRYAISWVRQAPGQGLEWMGGVIPRFDKTNYAQKFQGRVMITADKSTSTAYMELSSLRSDDTAVYYCAGDRLDTKITHTWYGFGDFWGQGTTVTVSS VL: EIVLTQSPGTLSLSPGERATLSCRASQSVTSNFLAWYQQRPGQAPRLLIYGASVRAIDIPDRFSGSGSGTDFTLTISRLEPEDFAVYYCQQYGDPFRTFGQGTKVEIK ?
3.45 nM

// next record ADI-41354 (antibody, V domains shown, IgG1; also called Ab 651) VH: EVQLLESGGGLVQPGGSLRLSCAASGFTFSSYAMSWVRQAPGKGLEWVSGISGSGGTTYYADSVKGRFTISRDNSKNTLYLQMNSLRAEDTAVYYCAKDSPVNINCGGDCDVAYWGQGTLVTVSS VL: EIVMTQSPSSLSASVGDTVTITCQASQDISYSLNWYQQKPGKAPNLLIFDASHLQTGVPSRFSGGGDGKHFSFTISSLQPEDVATYYCQQYDSLMYTFGQGTKVEIK
0.771 nM
